Measured IC50, listed per entry.
assay_target: HIV-1 protease (Human immunodeficiency virus type 1 group M subtype B, UniProt P03369)
Construct: HIV PR is a 99 amino acid aspartyl protease which functions as a homodimer; made in house; host or cells: no host: total chemical synthesis
run_description: HIV protease inhibition, fluorogenic peptide substrate cleavage (IC50 and Ki)
Format: biochemical
stated_conditions: read-out: HIV PR IC50
recorded_metric: IC50 (µM)

INSERT INTO assay_data (compound, unit_tag, reported) VALUES
  ('COCC1C(OC)C(OC)C(COC)N1CC(O)C(Cc1ccccc1)NC(=O)OCc1ccccc1 (stereo not shown)', 'µM', 100),
  ('COCC1CCC(COC)N1CC(O)C(Cc1ccccc1)NC(=O)OCc1ccccc1 (stereo not shown)', 'µM', 1800),
  ('COC(=O)[C@@H]1CCCN1C(=O)C(=O)C(Cc1ccccc1)NC(=O)OC(C)(C)C (stereo partly shown)', 'µM', 6),
  ('CC(C)(C)NC(=O)[C@@H]1CCCN1C(=O)C(=O)C(Cc1ccccc1)NC(=O)OCc1ccccc1 (mixture of isomers)', 'µM', 0.7),
  ('CC(C)(C)NC(=O)[C@@H]1C[C@@H](OCc2ccccc2)CN1C[C@@H](O)[C@H](Cc1ccccc1)NC(=O)OCc1ccccc1', 'µM', 3.9),
  ('CC(C)(C)NC(=O)[C@@H]1CCCN1C[C@@H](O)[C@H](Cc1ccccc1)NC(=O)OCc1ccccc1', 'µM', 60),
  ('CO[C@@H]1C[C@@H](C(=O)NC(C)(C)C)N(C[C@@H](O)[C@H](Cc2ccccc2)NC(=O)OCc2ccccc2)C1', 'µM', 2.9);

----------
assay_target: HIV-1 protease (Human immunodeficiency virus type 1 group M subtype B, UniProt P03369)
Construct: HIV PR is a 99 amino acid aspartyl protease which functions as a homodimer; made in house; host or cells: no host: total chemical synthesis
run_description: HIV protease inhibition, fluorogenic peptide substrate cleavage (IC50 and Ki)
Assay type: biochemical
stated_conditions: read-out: HIV PR IC50
pIC50: −log10 of the molar value.
Measured pIC50, listed per entry.
recorded_metric: pIC50

INSERT INTO results (compound, reported) VALUES
  ('COC[C@H]1CCCN1C[C@@H](O)[C@H](Cc1ccccc1)NC(=O)OCc1ccccc1 [Compound 7]', 2.80),
  ('CC(C)(C)NC(=O)[C@@H]1CCCN1C(=O)[C@H](O)[C@H](Cc1ccccc1)NC(=O)OCc1ccccc1 [Compound 23]', 3.52),
  ('COC[C@@H]1[C@@H](OC)[C@H](OC)[C@H](COC)N1C(=O)C(=O)C(Cc1ccccc1)NC(=O)OCc1ccccc1 (mixture of isomers) [Compound 12]', 4.70),
  ('CO[C@H]1CC(C(=O)NC(C)(C)C)N(C[C@@H](O)[C@H](Cc2ccccc2)NC(=O)OCc2ccccc2)C1 (stereo partly shown) [Compound 9]', 4.77);

----------
assay_target: FIV protease (Feline immunodeficiency virus)
Construct: an 18.6 kDa precursor, which auto-processed to a 13.2 kDa FIV PR plus N- and C-terminal fragments; made in house; host or cells: E. coli BL21.DE3, lys S (pT7-7 vector)
run_description: FIV protease inhibition, peptide substrate cleavage by HPLC (IC50 and Ki)
Assay type: biochemical
stated_conditions: read-out: FIV PR Ki
recorded_metric: Ki (µM)

INSERT INTO assay_data (compound, unit_tag, reported) VALUES
  ('CC[C@H](C)[C@H](NC(=O)[C@@H]1CCCN1C(=O)C(=O)C(Cc1ccccc1)NC(=O)OCc1ccccc1)C(=O)N[C@@H](CCC(N)=O)C(=O)OC(C)(C)C (mixture of isomers)', 'µM', 29);

Reference source for all entries: patent US6900238B1
